Each entry below carries its recorded growth.
Tested on: MALME-3M melanoma
Test: NCI-60 one-dose screen, 48 h (100 = growth as untreated, 0 = no growth, -100 = all killed)
Conditions: 10 µM
Procedure: Cells are grown in 96 well plates and exposed to the test compound for 48 hours. Compounds are tested at a single concentration, which is 10^-5 M for most compounds. The reported endpoint is percent growth (GI% or GIPRCNT), where numbers from 0 - 100% represent growth inhibition, and numbers from -100% - 0 represent cell death. For example, a value of 40 represents 60% growth inhibition. A value of 0 means no net growth occurred over the course of the experiment. […]
Compounds without any hit were thinned out: in the full panel of roughly 83,000, 20% have a hit.
propertyLabel: growth (%)

INSERT INTO results (molecule, testedon, quantityunit, quantitativeresult) VALUES
  ('O=[N+]([O-])c1cccc(N=Nc2ccc(O)cc2O)c1', 'MALME-3M melanoma', '%', 65.8),
  ('CC(=O)/C(Cc1ccccc1)=N/O', 'MALME-3M melanoma', '%', 104),
  ('CCOC(=O)c1cc2cccc(OC)c2oc1=O', 'MALME-3M melanoma', '%', 115),
  ('O=C(/C(=N/O)c1ccccc1)c1ccccc1', 'MALME-3M melanoma', '%', 82),
  ('O=S(=O)(O)c1cc(O)c2c(N=Cc3ccccc3O)c(S(=O)(=O)O)ccc2c1', 'MALME-3M melanoma', '%', 97.9),
  ('Cc1ccc(C)n1-c1ccsc1C(=O)NNC(=O)C(Cl)Cl', 'MALME-3M melanoma', '%', 93.2),
  ('COc1ccc(-c2cc(-c3cc(-c4ccc(OC)cc4)nc(N)n3)nc(N)n2)cc1', 'MALME-3M melanoma', '%', 91.2),
  ('C/C(=N\NC(=O)c1ccccc1N)c1ccccc1O', 'MALME-3M melanoma', '%', 50),
  ('c1ccc(CN2COc3c(ccc4c3OCN(Cc3ccccc3)C4)C2)cc1', 'MALME-3M melanoma', '%', 28.4),
  ('CCCCC1C(=O)N(c2ccccc2)N(c2ccccc2)C1=O', 'MALME-3M melanoma', '%', 97.1),
  ('CCOC(=O)CNN', 'MALME-3M melanoma', '%', 103),
  ('CCN1C(=O)/C(=C/C=C/N(C)c2ccccc2)SC1=S', 'MALME-3M melanoma', '%', 86.4),
  ('CC(=O)C1CCCCC1', 'MALME-3M melanoma', '%', 107),
  ('CCOC(=O)CSc1c([N+](=O)[O-])ncn1C', 'MALME-3M melanoma', '%', 80.4),
  ('CC(C(=O)O)(C1CCCCC1)C1(O)CCCCC1 (centres undefined)', 'MALME-3M melanoma', '%', 98.9),
  ('CCCCC(=O)c1ccc(OC)cc1', 'MALME-3M melanoma', '%', 94),
  ('Cc1ccc(C)n1-c1ccsc1C(=O)NNC(=O)CCl', 'MALME-3M melanoma', '%', 86.7),
  ('COc1ccc(/C=C/c2cccc[n+]2C)cc1', 'MALME-3M melanoma', '%', 94.6),
  ('O=C(O)CCC(=O)OC(C1CO1)C(OC(=O)CCC(=O)O)C1CO1 (centres undefined)', 'MALME-3M melanoma', '%', 86.9),
  ('CC(C)=NNC(N)=S', 'MALME-3M melanoma', '%', 78.4),
  ('Oc1ccc(N=Nc2ccc(Br)cc2)c(O)c1', 'MALME-3M melanoma', '%', 36.2),
  ('OCC1OC(OC2C(O)C(CO)OC2(CO)OC2OC(CO)C(O)C(O)C2O)C(O)C(O)C1O (centres undefined)', 'MALME-3M melanoma', '%', 138),
  ('CC(=O)c1ccc(N=C(C#N)C2=C(O)c3ccccc3C2=O)cc1', 'MALME-3M melanoma', '%', 114),
  ('CC1CCC(C(=O)O)N1 (centres undefined)', 'MALME-3M melanoma', '%', 102),
  ('O=C(NN=C1CCCCC1)C(=O)NN=C1CCCCC1', 'MALME-3M melanoma', '%', 127),
  ('CC(=O)OCC1CCCO1 (centres undefined)', 'MALME-3M melanoma', '%', 99.2),
  ('CC(=O)Cc1cc(-c2cc(CC(C)=O)[nH]n2)n[nH]1', 'MALME-3M melanoma', '%', 94.6),
  ('Cc1ccc(Cl)cc1N1C(=O)CC(Sc2ccccc2N)C1=O (centres undefined)', 'MALME-3M melanoma', '%', 138),
  ('S=C1NCc2cncnc2N1', 'MALME-3M melanoma', '%', 112),
  ('CCOC(=O)C(CCC(C)C)C(=O)OCC', 'MALME-3M melanoma', '%', 108),
  ('COC(=O)c1ccccc1N(C)C', 'MALME-3M melanoma', '%', 101),
  ('COC(=O)c1[nH]c(=O)c(C#N)c(C(=O)OC)c1C(=O)c1ccccc1', 'MALME-3M melanoma', '%', 96.8),
  ('COc1nc(N)nc2c1ncn2C1OC(CO)CC1O (centres undefined)', 'MALME-3M melanoma', '%', 100),
  ('COc1ccccc1NC(=O)c1cc2cc(Br)ccc2cc1O', 'MALME-3M melanoma', '%', -1.45),
  ('COc1cc(CN)ccc1O', 'MALME-3M melanoma', '%', 79.3),
  ('NC(N)=Nc1cc2ccccc2c2ccccc12', 'MALME-3M melanoma', '%', 76.2),
  ('CCN(CC)CCNc1ccc(CO)c2sc3ccccc3c(=O)c12', 'MALME-3M melanoma', '%', 39.8),
  ('O=C(NC1CCCCC1)OCc1c(COC(=O)NC2CCCCC2)c(-c2ccc(Cl)c(Cl)c2)n2c1CCC2', 'MALME-3M melanoma', '%', 31.8),
  ('CC(C)OC(=O)c1cc(NC(=S)OC(C)C)ccc1Cl', 'MALME-3M melanoma', '%', 67.6),
  ('CCCCCCCCCCC1CO1 (centres undefined)', 'MALME-3M melanoma', '%', 103),
  ('Cc1cc(C)c(N)c(S(=O)(=O)O)c1', 'MALME-3M melanoma', '%', 104),
  ('COc1cc(-c2ccc(NC(=O)NC3CC3)c(OC)c2)ccc1NC(=O)NC1CC1', 'MALME-3M melanoma', '%', 102),
  ('OCCN1CCOCC1', 'MALME-3M melanoma', '%', 114),
  ('O=S(=O)(O)c1ccc(O)c2ccccc12', 'MALME-3M melanoma', '%', 127),
  ('O=C(CS)Nc1ccc2ccccc2c1', 'MALME-3M melanoma', '%', 126),
  ('O=P(O)(O)OCC(O)CO (centres undefined)', 'MALME-3M melanoma', '%', 110),
  ('C#C[C@H]1CCCCCC1O (some centres undefined)', 'MALME-3M melanoma', '%', 104),
  ('COc1cccc(Sc2ccc([N+](=O)[O-])c3no[n+]([O-])c23)c1', 'MALME-3M melanoma', '%', 27.7),
  ('O=C(O)CCCc1ccccc1', 'MALME-3M melanoma', '%', 118),
  ('CCCCN(CCCC)CCCO', 'MALME-3M melanoma', '%', 129),
  ('CCN(CC)CCCC(C)Nc1ccnc(/C=C/c2ccc(Cl)cc2)c1 (centres undefined)', 'MALME-3M melanoma', '%', -60.6),
  ('CC(=O)Nc1cccc(NC(C)=O)n1', 'MALME-3M melanoma', '%', 91.5),
  ('OCc1ccc(-c2ccc(-c3ccc(CO)s3)o2)s1', 'MALME-3M melanoma', '%', 78.1),
  ('CC(C)(N)COS(=O)(=O)O', 'MALME-3M melanoma', '%', 108);
